Test system: 621-102 (TSC2-deficient);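 further: immortalized renal angiomyolipoma cells stably carrying empty vector or TSC2, dosed in 384-well plates in DMEM, viability normalized to vehicle-treated wells within each plate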
ASSAY_NAME: relative viability vs DMSO; higher = less cytotoxic
ASSAY_CONTEXT: 0.01 µM; serum: 10% FBS; 72 h
REPORTED_METRIC: relative viability (%)

1. CCNC(=O)c1noc(-c2cc(C(C)C)c(O)cc2O)c1-c1ccc(CN2CCOCC2)cc1	22.2
2. Cc1cccc(-c2nn3c(c2-c2ccnc4ccc(C(N)=O)cc24)CCC3)n1	95.6
3. N[C@@H](CC(=O)N1CCn2c(nnc2C(F)(F)F)C1)Cc1cc(F)c(F)cc1F [Sitagliptin phosphate]	103
4. Cc1c(C(=O)Nc2ccc(N3C[C@@H](C)O[C@@H](C)C3)nc2)cccc1-c1ccc(OC(F)(F)F)cc1	116
5. FC(F)c1nc2ccccc2n1-c1nc(N2CCOCC2)nc(N2CCOCC2)n1	89.8
6. CC(C)[C@H](O)C(=O)N[C@@H](C)C(=O)N[C@@H]1C(=O)N(C)CCc2ccccc21	121
7. C=CC(=O)N1CCC[C@@H](n2nc(-c3ccc(Oc4ccccc4)cc3)c3c(N)ncnc32)C1	102
8. CNC(=O)Nc1ccc(-c2nc(N3CC4CCC(C3)O4)c3cnn(C4CCC5(CC4)OCCO5)c3n2)cc1	76.3
